measured on: T1, human iRhom2, endogenously expressed (human, UniProt Q6PJF5 1-856)
T1 sequence: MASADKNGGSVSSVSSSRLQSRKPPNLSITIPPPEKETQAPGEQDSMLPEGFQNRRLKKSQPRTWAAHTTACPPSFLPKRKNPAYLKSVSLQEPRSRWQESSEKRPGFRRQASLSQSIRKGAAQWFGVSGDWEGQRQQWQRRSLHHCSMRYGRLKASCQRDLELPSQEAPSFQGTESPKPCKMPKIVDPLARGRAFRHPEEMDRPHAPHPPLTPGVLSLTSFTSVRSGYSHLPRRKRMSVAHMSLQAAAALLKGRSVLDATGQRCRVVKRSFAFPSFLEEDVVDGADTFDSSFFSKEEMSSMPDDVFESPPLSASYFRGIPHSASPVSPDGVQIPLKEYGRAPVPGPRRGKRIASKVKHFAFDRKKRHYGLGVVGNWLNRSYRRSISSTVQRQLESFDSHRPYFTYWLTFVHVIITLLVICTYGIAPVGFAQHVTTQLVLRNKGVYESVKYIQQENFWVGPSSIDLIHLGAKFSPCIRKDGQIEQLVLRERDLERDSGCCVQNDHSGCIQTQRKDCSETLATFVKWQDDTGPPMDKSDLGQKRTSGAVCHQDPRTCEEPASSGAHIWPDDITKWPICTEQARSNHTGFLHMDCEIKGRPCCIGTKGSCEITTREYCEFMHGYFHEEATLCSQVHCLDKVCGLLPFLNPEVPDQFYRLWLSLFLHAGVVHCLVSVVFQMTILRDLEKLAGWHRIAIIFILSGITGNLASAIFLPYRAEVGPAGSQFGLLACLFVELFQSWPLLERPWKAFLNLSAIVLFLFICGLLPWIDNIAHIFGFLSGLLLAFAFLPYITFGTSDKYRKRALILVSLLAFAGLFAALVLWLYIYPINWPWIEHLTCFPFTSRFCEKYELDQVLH
protocol text: cell-based or functional assay
Decision: PMA-induced IL-6R release from U-937 cells, percent inhibition, 1 µg/ml >= 70% yields condition met, all other cases yield condition not met.

State whether the measured PMA-induced IL-6R release from U-937 cells, percent inhibition, 1 µg/ml reaches 70%, counting equality as reaching it, for antibody 3 (antibody, V domains shown, mouse IgG, kappa light chain; also called clone #3; purified antibody 3) VH: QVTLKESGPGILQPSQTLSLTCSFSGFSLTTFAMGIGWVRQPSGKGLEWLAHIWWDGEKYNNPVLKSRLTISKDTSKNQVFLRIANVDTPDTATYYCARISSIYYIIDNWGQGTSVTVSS VL: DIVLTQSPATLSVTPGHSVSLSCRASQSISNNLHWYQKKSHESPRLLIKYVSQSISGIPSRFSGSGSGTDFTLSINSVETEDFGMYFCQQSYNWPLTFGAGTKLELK
condition not met

State whether the measured PMA-induced IL-6R release from U-937 cells, percent inhibition, 1 µg/ml reaches 70%, counting equality as reaching it, for antibody 22 (antibody, V domains shown, mouse IgG, kappa light chain; also called clone #22; purified antibody 22) VH: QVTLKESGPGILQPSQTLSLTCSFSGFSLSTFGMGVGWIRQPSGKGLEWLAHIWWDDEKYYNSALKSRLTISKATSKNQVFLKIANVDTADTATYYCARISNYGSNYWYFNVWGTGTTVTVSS VL: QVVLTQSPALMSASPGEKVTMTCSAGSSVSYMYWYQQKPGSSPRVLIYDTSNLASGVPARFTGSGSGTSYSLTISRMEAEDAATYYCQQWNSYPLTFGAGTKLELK
condition met

State whether the measured PMA-induced IL-6R release from U-937 cells, percent inhibition, 1 µg/ml reaches 70%, counting equality as reaching it, for antibody 43 (antibody, V domains shown, mouse IgG, kappa light chain; also called clone #43; purified antibody 43) VH: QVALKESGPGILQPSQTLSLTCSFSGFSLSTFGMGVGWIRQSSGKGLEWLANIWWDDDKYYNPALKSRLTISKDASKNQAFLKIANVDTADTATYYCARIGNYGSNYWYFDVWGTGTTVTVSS VL: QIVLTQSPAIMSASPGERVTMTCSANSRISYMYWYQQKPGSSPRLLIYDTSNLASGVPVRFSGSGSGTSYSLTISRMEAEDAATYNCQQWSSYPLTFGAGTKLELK
condition met

State whether the measured PMA-induced IL-6R release from U-937 cells, percent inhibition, 1 µg/ml reaches 70%, counting equality as reaching it, for antibody 5 (antibody, V domains shown, mouse IgG, kappa light chain; also called clone #5; purified antibody 5) VH: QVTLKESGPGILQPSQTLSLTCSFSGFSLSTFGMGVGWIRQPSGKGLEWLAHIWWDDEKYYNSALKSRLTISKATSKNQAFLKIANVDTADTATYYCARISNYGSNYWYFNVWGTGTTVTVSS VL: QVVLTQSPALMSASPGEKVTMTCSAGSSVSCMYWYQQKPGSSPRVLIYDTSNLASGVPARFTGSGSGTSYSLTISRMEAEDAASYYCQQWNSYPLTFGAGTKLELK
condition not met

State whether the measured PMA-induced IL-6R release from U-937 cells, percent inhibition, 1 µg/ml reaches 70%, counting equality as reaching it, for antibody 16 (antibody, V domains shown, mouse IgG, kappa light chain; also called clone #16; purified antibody 16) VH: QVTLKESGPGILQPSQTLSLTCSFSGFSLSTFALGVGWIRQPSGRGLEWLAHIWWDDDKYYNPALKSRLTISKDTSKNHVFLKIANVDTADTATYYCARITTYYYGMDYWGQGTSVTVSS VL: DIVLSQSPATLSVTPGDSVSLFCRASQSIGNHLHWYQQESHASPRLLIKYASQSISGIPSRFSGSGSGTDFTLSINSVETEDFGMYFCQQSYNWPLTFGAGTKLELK
condition met

State whether the measured PMA-induced IL-6R release from U-937 cells, percent inhibition, 1 µg/ml reaches 70%, counting equality as reaching it, for antibody 42 (antibody, V domains shown, mouse IgG, kappa light chain; also called clone #42; purified antibody 42) VH: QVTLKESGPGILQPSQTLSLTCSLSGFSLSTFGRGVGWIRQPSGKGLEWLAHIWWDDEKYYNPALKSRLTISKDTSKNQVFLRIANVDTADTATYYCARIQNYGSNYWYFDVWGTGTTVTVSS VL: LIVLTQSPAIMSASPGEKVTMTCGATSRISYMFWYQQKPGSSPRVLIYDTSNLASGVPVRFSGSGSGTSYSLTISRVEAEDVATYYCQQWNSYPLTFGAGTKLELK
condition met
